test: Elimination rate constant in human adults with pulmonary tuberculosis at 600 mg administered daily for 7 days; format: ADME, organism-based; conditions: in vivo
EXPERIMENTAL_ENDPOINT: k el at 168 h (s⁻¹)
Express your answer in s⁻¹, writing the number without its unit.

Lookup: Item CC(=O)NC[C@H]1CN(c2ccc(N3CCOCC3)c(F)c2)C(=O)O1 [LINEZOLID] : provide k el at 168 h
Found: 5.56e-05

###

experiment: Cmax in human adults with pulmonary tuberculosis at 600 mg administered once daily for 5 days; type: ADME, organism-based; set-up: dose 600 mg; conditions: in vivo
EXPERIMENTAL_ENDPOINT: Cmax (ng/mL)
Respond numerically; units are ng/mL and should not be typed.

Lookup: Entry CC(=O)NC[C@H]1CN(c2ccc(N3CCOCC3)c(F)c2)C(=O)O1 [LINEZOLID] needs its Cmax filled in; supply it.
Found: 10300

###

experiment: Tmax in human adults with pulmonary tuberculosis at 600 mg administered daily for 7 days; format: ADME, organism-based; details: in vivo
EXPERIMENTAL_ENDPOINT: Tmax (h)
Numbers only; they are read as h.

Lookup: Fill in Tmax for record CC(=O)NC[C@H]1CN(c2ccc(N3CCOCC3)c(F)c2)C(=O)O1 [LINEZOLID]
Found: 1.5

###

assay: Apparent oral clearance in human adults with pulmonary tuberculosis at 600 mg administered twice daily for 7 days; assay type: ADME, organism-based; details: in vivo
EXPERIMENTAL_ENDPOINT: CL/F (mL/min)
Kindly answer with a numeric value in mL/min, unit omitted.

Lookup: // fetch CL/F given entry CC(=O)NC[C@H]1CN(c2ccc(N3CCOCC3)c(F)c2)C(=O)O1 [LINEZOLID]
Found: 80

###

assay: Cmax in human adults with pulmonary tuberculosis at 600 mg administered twice daily for 7 days; type: ADME, organism-based; design: dose 600 mg; details: in vivo
EXPERIMENTAL_ENDPOINT: Cmax (ng/mL)
Write the number in ng/mL without appending the unit.

Lookup: Give the measured Cmax for CC(=O)NC[C@H]1CN(c2ccc(N3CCOCC3)c(F)c2)C(=O)O1
Found: 19400

###

assay: Elimination half life in human adults with pulmonary tuberculosis at 600 mg administered daily for 7 days; format: ADME, organism-based; conditions: in vivo, read-out: beta t1/2 (converted)
EXPERIMENTAL_ENDPOINT: half-life (h)
Quick note: give the figure in h, leave out the unit.

Lookup: Give half-life for CC(=O)NC[C@H]1CN(c2ccc(N3CCOCC3)c(F)c2)C(=O)O1 [LINEZOLID]
Found: 2.9

###

assay: Cmax in human adults with pulmonary tuberculosis at 600 mg administered twice daily for 5 days; type: ADME, organism-based; set-up: dose 600 mg; details: in vivo
EXPERIMENTAL_ENDPOINT: Cmax (ng/mL)
Respond with the bare value in ng/mL.

Lookup: Give Cmax for CC(=O)NC[C@H]1CN(c2ccc(N3CCOCC3)c(F)c2)C(=O)O1 [LINEZOLID]
Found: 13400

###

assay: Tmax in human adults with pulmonary tuberculosis at 600 mg administered twice daily for 7 days; assay type: ADME, organism-based; settings: in vivo
EXPERIMENTAL_ENDPOINT: Tmax (h)
Give just the numeric value; h need not be written.

Lookup: Return Tmax (reported value) for this molecule: CC(=O)NC[C@H]1CN(c2ccc(N3CCOCC3)c(F)c2)C(=O)O1
Found: 1
